Target: T1, recombinant human CD63 extracellular loop 2 expressed with a C-terminal Myc-Myc-hexahistidine (human)
T1 construct: also called hCD63 EC loop 2-MMH; human CD63 EC loop 2-MMH
T1 sequence (chain, as listed by the source limits assumed): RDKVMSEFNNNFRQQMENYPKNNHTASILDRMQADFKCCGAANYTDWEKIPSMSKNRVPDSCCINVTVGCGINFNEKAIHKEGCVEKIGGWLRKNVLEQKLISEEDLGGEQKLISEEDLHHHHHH
Assay: SPR Biacore, mAb captured, 25C
Method: Equilibrium dissociation constants (KD) for different CD63 (EC2) loop reagents binding to purified anti-CD63 monoclonal antibodies were determined using a real-time surface plasmon resonance based Biacore T200 biosensor or Biacore 2000 biosensor. […] The association rate (Kₐ) and dissociation rate (kd) were determined by fitting the real-time binding sensorgrams to a 1:1 binding model with mass transport limitation using Scrubber 2.0c curve-fitting software. […]
quantity: Kd (nM)
Provide the reading as a plain figure in nM.

These solved cases illustrate the format of a correct answer.
- binder: "H2M12395N (antibody, V domains shown, also called H2aM12395N) VH: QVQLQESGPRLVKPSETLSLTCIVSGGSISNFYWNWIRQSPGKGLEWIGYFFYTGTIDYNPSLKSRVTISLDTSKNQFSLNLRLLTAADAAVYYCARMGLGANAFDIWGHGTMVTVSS VL: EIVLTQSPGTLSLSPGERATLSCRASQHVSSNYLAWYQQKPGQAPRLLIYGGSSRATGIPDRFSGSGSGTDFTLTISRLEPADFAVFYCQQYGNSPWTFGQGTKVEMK"
  recorded.result: 11
- binder: "H1M12386N (antibody, V domains shown) VH: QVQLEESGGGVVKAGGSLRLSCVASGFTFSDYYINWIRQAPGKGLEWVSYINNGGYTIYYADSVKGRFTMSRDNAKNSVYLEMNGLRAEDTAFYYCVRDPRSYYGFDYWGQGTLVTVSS VL: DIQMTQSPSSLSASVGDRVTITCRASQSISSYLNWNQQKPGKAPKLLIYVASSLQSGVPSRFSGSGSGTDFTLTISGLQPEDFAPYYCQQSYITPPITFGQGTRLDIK"
  recorded.result: 0.676

Alright, here's another binder for you.
Documented Kd of H2M13022N (antibody, V domains shown, also called H2bM13022N) VH: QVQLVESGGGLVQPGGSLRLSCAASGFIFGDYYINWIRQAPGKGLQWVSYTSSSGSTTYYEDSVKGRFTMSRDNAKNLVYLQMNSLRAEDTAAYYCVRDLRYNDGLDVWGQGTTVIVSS VL: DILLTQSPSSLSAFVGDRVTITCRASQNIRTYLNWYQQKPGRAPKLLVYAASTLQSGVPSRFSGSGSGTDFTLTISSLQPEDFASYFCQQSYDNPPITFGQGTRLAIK : 13
